Target: IgG1 (human, UniProt P01857-1 P01857-1:1-330)
Sequence (P01857 other isoform, or with tags, fused parts or gaps): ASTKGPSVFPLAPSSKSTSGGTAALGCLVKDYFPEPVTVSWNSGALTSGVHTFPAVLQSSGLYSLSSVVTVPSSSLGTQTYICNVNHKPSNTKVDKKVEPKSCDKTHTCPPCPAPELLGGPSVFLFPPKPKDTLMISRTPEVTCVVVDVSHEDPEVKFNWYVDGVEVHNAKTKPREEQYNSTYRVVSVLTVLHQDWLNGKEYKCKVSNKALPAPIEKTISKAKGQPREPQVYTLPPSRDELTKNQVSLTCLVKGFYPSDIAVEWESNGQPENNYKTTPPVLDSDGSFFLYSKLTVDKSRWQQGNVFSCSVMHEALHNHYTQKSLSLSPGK
Test: SPR; solution A
Conditions: tags: Calbiochem; chain copies: 2; label: 3' A16 tail for immobilisation; GGUGCU bulge (vsfold4)
measured.quantity: pKd
Give bare numbers, as −log10 of the molar value.

Requested field: pKd. Item: SEQ ID NO:9 (ssRNA, 2'-F at all pyrimidines) RNA: GGGCCACAGCGAGGUGCUCCACCAUUCACGUGGAACUCGUGGGCAGCCCGUCCCCGCGUGUGGUCGG
7.70
